cytotoxicity at 70.5 h listing for selected compounds.
Assay: Human HepG2 cell viability assay in 384 well format
Assay type: toxicity, cell-based
Parameters: dose 125 nL, time 70.5 hour; concentration not given beside the values
Conditions: HepG2 cells, read-out: Inhibition

compound | cytotoxicity at 70.5 h (%)
O=C(NCC1CC[C@@]2(CNCCOC2)O1)c1cnccn1 (some centres undefined) | 27.6
CN(c1nccc(-c2cnc3sccn3c2=O)n1)C1CCCCC1 | -3.44
CN(C)[C@H]1CN(C(=O)CCCc2ccc(F)cc2)C[C@@H]1C1CC1 | -7.35
Cc1cc(C)n(CCN2CCN(C(=O)c3cc4ccccc4o3)CC2)n1 | -0.14
